- assay notes: Cytotoxicity, neutral red uptake assay, MRC-5
- Format: cell-based
- measurement setup: human, MRC-5 normal lung fibroblasts, confluent monolayers, confluent cultures, 0-1000 µM, mean ± SD
Each item that follows carries a reported IC50 at 24 h.

compound="COC(=O)CNC(=O)C[C@H](C)CCC1=C(C)CCC2[C@@](C)(C(=O)NCC(=O)OC)CCC[C@]12C (stereo partly drawn) [Compound 8]" reported_property="IC50 at 24 h" result="890 µM"

# query: IC50 at 24 h of entry C=C1CCC2[C@](C)(CCC[C@]2(C)C(=O)O)[C@H]1CC[C@@H](C)CC(=O)N[C@@H](CC(C)C)C(=O)OC (stereo partly drawn) [Compound 13]
449 µM

What about C=C1CCC2[C@](C)(CCC[C@]2(C)C(=O)N[C@@H](Cc2c[nH]c3ccccc23)C(=O)OCC)[C@H]1CC[C@@H](C)CC(=O)N[C@@H](Cc1c[nH]c2ccccc12)C(=O)OCC (stereo partly drawn) [Compound 20] ?
> 1000 µM
